pIC50: −log10 of the molar value.
// cross-study collection: pIC50 for Tyrosine-protein kinase JAK2 (Homo sapiens)
recorded metric: pIC50

Some entries whose results are on file:
Query string: Hello, please tell me recorded pIC50 for this one: `Cc1cc(Nc2ncc(C)c(N3CC(CC#N)(N4CCCCC4)C3)n2)sn1`
Result string: 8.36

Query string: Indicate its recorded pIC50; the molecule in question is C[C@@H]1CCN(C(=O)C(C)(C)C#N)C[C@@H]1n1c(=O)[nH]c2cnc3[nH]ccc3c21 (racemic)
Result string: 7.82

Query string: Output pIC50 of `Cc1ccc(Cl)cc1-c1c(C(N)=O)cc(-c2ccnc(N)n2)n1C`
Result string: 7.18

Query string: Recall and state the measured pIC50 for `NC(=O)c1ccc2c(c1)nc([C@H]1CC[C@H](O)CC1)n2CCCO` .
Result string: 4.53

Query string: Provide one value: measured pIC50 of `Cc1cnc(Nc2cc(NC3CCN(c4ccc(C#N)cn4)CC3)c(C(N)=O)cn2)cn1`
Result string: 8.28

[1] CS(=O)(=O)Nc1ccc(-c2ccnc(Nc3ccc(CN4CCC(O)CC4)cc3)n2)cc1
[2] N#CCC(=O)N1CCC(Nc2c(C(N)=O)cnc3[nH]ccc23)CC1
[3] C[C@@H](O)[C@@H](CO)Nc1c(C(N)=O)cnn2cc(-c3ccccc3)cc12
[4] Cc1cnc(Nc2ccc(N3CCOCC3)cc2)nc1-c1ccc(C(=O)NCC#N)cc1
[5] N#CC1(C(=O)NC2CC=C(c3cccc4nc(NC(=O)C5CC5)nn34)CC2)CC1 (stereo not drawn)
Query string: // sort entries: pIC50, high to low Note for the reader: the ranking is given by listing the labels in the order requested.
Result string: 4, 1, 3, 2, 5

[P] N#C[C@]1(C2CC2)C(=O)N2C[C@H]1COCCCCOCc1cccc(n1)Nc1cc2ccn1
[Q] CN(c1ncnc2[nH]ccc12)N1CCC[C@@H](C(=O)NCC(F)(F)F)C1
[R] CN1CCN(C(=O)c2ccc3c(c2)[nH]c2c(C(N)=O)cc(-c4ccc(Cl)c(Cl)c4)cc23)CC1
[S] CN(c1ncnc2[nH]ccc12)[C@H]1CN(S(=O)(=O)N2CCOCC2)CC12CC2
[T] Cc1cc(Nc2nc(N3CCN(C(=O)Cc4ccccc4)CC3)nn3cccc23)n[nH]1
Query string: Sequence the entries by pIC50, beginning with the highest number. Please reply with the labels ordered as requested. Many thanks.
Result string: T, R, Q, P, S
(T: 8.55, R: 8.21, Q: 7.89, P: 6.89, S: 6.59)
